# System: LOX IMVI melanoma
# assay_name: NCI tumour cell line growth inhibition, 48 h
readout_name: TGI (µM)
# number only, unit µM dropped from output

Enquiry: Entry COc1ccc(NC(=O)c2sc3nc(C)c(C(=O)/C=C/c4ccccc4)cc3c2N)cc1 : reported TGI = ?
Return: 1.61

Enquiry: Moving on to the next compound: CC(C)(C)c1cc(C(C)(C)C)c2c(c1O)OC(=O)CS2
Return: 24

Enquiry: Moving on to the next compound: Cc1ccnc2[nH]c(-c3cccc4ccccc34)cc(=O)c12
Return: 17.1

Enquiry: Moving on to the next compound: c1cc2ccc3cc2cc1CNCCN1CCNCc2ccc4ccc(cc4c2)CNCCN(CCNC3)CCNCc2ccc3ccc(cc3c2)CNCC1
Return: 4.42

Enquiry: Moving on to the next compound: CCCOc1cc2c(cc1O)CC[C@@H]1[C@@H]2CC[C@]2(C)[C@@H](O)CC[C@@H]12
Return: 34.5

* * *

# Test system: SW-620 colon
# assay_name: NCI tumour cell line growth inhibition, 48 h
Give measured TGI for each item. Keep answers brief.

Enquiry: Request: TGI, test system SW-620 colon, entry COc1ccc(OC)c(Nc2nc3ccccc3c3c2-c2ccc(OC)cc2C3=O)c1
Return: > 100 µM

Enquiry: Moving on to the next compound: O=[N+]([O-])c1ccc(/C(=C\c2ccccc2)Cn2ccnc2)cc1
Return: > 100 µM

Enquiry: Moving on to the next compound: COC(=O)c1ccccc1C1CN=NC12Cc1c(C)cccc1C2=O (stereo not given)
Return: > 100 µM

Enquiry: Moving on to the next compound: CCN(CC)C(=O)c1c(Cl)cc(N(CC)CC)oc1=O
Return: > 100 µM

Enquiry: Moving on to the next compound: COc1ccc(NC(=O)c2sc3nc(C)c(C(=O)/C=C/c4ccccc4)cc3c2N)cc1
Return: 2.24 µM

Enquiry: Moving on to the next compound: O=[N+]([O-])c1ccc(-c2nc(/C=N/N3CCCCC3)cs2)o1
Return: > 100 µM

Enquiry: Moving on to the next compound: C=C(C)C(=O)OC1C[C@H](COC(C)=O)C2CC=C(C)C2C2OC(=O)C(=C)[C@H]12 (stereo not given in full)
Return: 6.53 µM

Enquiry: Moving on to the next compound: Oc1cccc2cc(Cl)cnc12
Return: > 100 µM

Enquiry: Moving on to the next compound: CCCOc1cc2c(cc1O)CC[C@@H]1[C@@H]2CC[C@]2(C)[C@@H](O)CC[C@@H]12
Return: > 35.5 µM

Enquiry: Moving on to the next compound: Cn1ncc(NCCn2cnc3c2c(=O)n(C)c(=O)n3C)c(Cl)c1=O
Return: > 100 µM

* * *

# System: DU-145 prostate
# assay_name: NCI tumour cell line growth inhibition, 48 h
readout_name: GI50

Enquiry: Entry O=c1c2sc3ccccc3c2nnn1-c1ccc(F)c(Cl)c1 : reported GI50 = ?
Return: 15600 nM

Enquiry: Moving on to the next compound: NC(=O)[C@@H](CCC(F)(F)F)N(Cc1ccc(-c2ncon2)cc1F)S(=O)(=O)c1ccc(Cl)cc1
Return: > 67100 nM

Enquiry: Moving on to the next compound: COc1cc2c3c(n(CCCN(C)C)c(=O)c2cc1OC)-c1cc2c(cc1C3=O)OCO2
Return: 144 nM

Enquiry: Moving on to the next compound: NCCOc1ncccc1/C=C1\C2C=CC=CC2C2C=CC(F)=CC12 (stereo unspecified)
Return: 531 nM

Enquiry: Moving on to the next compound: N#Cc1ccccc1C#C/C=C\C#Cc1cccs1
Return: 19700 nM

Enquiry: Moving on to the next compound: Cc1ccc2nc3ccccc3c(NCc3ccccc3)c2c1
Return: 2560 nM

Enquiry: Moving on to the next compound: Nc1ncc2ccc3c(ccn3C3CC(O)C(CO)O3)c2n1 (stereo unspecified)
Return: > 100000 nM

Enquiry: Moving on to the next compound: O=C(CC1(O)C(=O)N(Cc2ccccc2)c2ccc(Br)cc21)c1ccc(C(=O)NCC2CCC3(CC2)OOC2(CCCCC2)OO3)cc1 (stereo unspecified)
Return: 191 nM

Enquiry: Moving on to the next compound: COc1cc2c3c(n(CCCNCCCNCCCn4c5c(c6cc(OC)c(OC)cc6c4=O)C(=O)c4ccccc4-5)c(=O)c2cc1OC)-c1ccccc1C3=O
Return: > 44300 nM

Enquiry: Moving on to the next compound: Cc1ccc(S(=O)(=O)Oc2ccccc2-c2ccccc2)cc1
Return: 2870 nM

Enquiry: Moving on to the next compound: O=c1c2c3c(sc2n2c(CCl)nnc2n1Cc1ccccc1)CCCC3
Return: 2450 nM
